Assay: Kinetic solubility in FaSSIF
Assay type: physicochemical
Settings: FaSSIF, 37 °C, thermodynamic from solid, timepoint 1 h
PROPERTY MEASURED: solubility at 1 h (µg/mL)
Please give a number only; it is taken to be in µg/mL.

Ask: Report solubility at 1 h for COc1ccc2ncnc(Nc3ccc(Oc4cc5ncnn5cn4)c(C)c3)c2c1O[C@@H]1CCN(C)CC1(F)F [amorphous freebase]
Result: 280

----------
Experiment: Hygroscopicity by DVS
Format: physicochemical
Conditions: 80% RH, 25° C.
PROPERTY MEASURED: Weight change at 80% RH/25° C. by DVS (%)
Please give a number only; it is taken to be in %.

# annotated cases, reported Weight change at 80% RH/25° C. by DVS shown
compound="COc1ccc2ncnc(Nc3ccc(Oc4cc5ncnn5cn4)c(C)c3)c2c1O[C@@H]1CCN(C)CC1(F)F [Freebase Type B]" experimental_value=0.2
compound="COc1ccc2ncnc(Nc3ccc(Oc4cc5ncnn5cn4)c(C)c3)c2c1O[C@@H]1CCN(C)CC1(F)F [Fumarate Type A]" experimental_value=0.8
compound="COc1ccc2ncnc(Nc3ccc(Oc4cc5ncnn5cn4)c(C)c3)c2c1O[C@@H]1CCN(C)CC1(F)F [Fumarate Type B]" experimental_value=2.1

With those in mind, consider the next compound.
Ask: Report Weight change at 80% RH/25° C. by DVS for COc1ccc2ncnc(Nc3ccc(Oc4cc5ncnn5cn4)c(C)c3)c2c1O[C@@H]1CCN(C)CC1(F)F [Fumarate Type E]
Result: 2.1
